Below, each of the compounds is paired with its reported pEC50 value.
- Tested on: parasites (ring stage, in human red blood cell culture)
- procedure summary: Parasite LDH growth assay (antiparasite potency, Parasite Assay)
- Format: cell-based, Plasmodium falciparum
- test conditions: Plasmodium falciparum, Erythrocyte, 72 h, 0.7% rings, 2% haematocrit, 72 hours at 37° C., LDH readout of parasite growth
Scale: negative log10 of molar concentration, which is what pEC50 denotes.

Previously resolved entries follow.
- compound: "CC1(C)CC(=O)N([C@@H]2CCOc3ccc(C(=O)N[C@@H]4c5cc(F)ccc5OC(C)(C)[C@H]4O)cc32)C(=N)N1 [Example 189]"
  quantitative result: 9.00
- compound: "CCC1(CC)CC(=O)N([C@@H]2CC3(COC3)Oc3ccc(C(=O)N[C@@H]4c5ccccc5C[C@H]4O)cc32)C(=N)N1 [Example 23A]"
  quantitative result: 8.30
- compound: "CCC1(CC)CC(=O)N([C@H]2c3cc(C(=O)N[C@@H]4c5ccccc5CC[C@H]4O)ccc3O[C@@]2(C)COC)C(=N)N1 [Example 249]"
  quantitative result: 8.96

Provide measured pEC50 value, entry: CCC1(CC)CC(=O)N([C@H]2c3cc(C(=O)N[C@@H]4c5ccccc5OC(C)(C)[C@H]4O)ccc3OC[C@@H]2C)C(=N)N1 [Example 240] 9.22

Provide measured pEC50 value, entry: CCC1(CC)CC(=O)N([C@@H]2CCOc3ccc(C(=O)N[C@H]4c5cc(F)ccc5C[C@@H]4O)cc32)C(=N)N1 [Example 147] 6.80

Provide measured pEC50 value, entry: CCC1(CC)CC(=O)N([C@@H]2CC(C)(C)Oc3ccc(C(=O)N[C@@H]4c5ccccc5OC[C@H]4O)cc32)C(=N)N1 [Example 36B] 8.66

Provide measured pEC50 value, entry: CC1(C)CC(=O)N([C@@H]2CCOc3ccc(C(=O)N[C@@H]4c5cc(F)ccc5OC[C@H]4O)cc32)C(=N)N1 [Example 112] 7.94

Provide measured pEC50 value, entry: CCC1(CC)C[C@@H](N2C(=N)NC(C)(C)CC2=O)c2cc(C(=O)N[C@@H]3c4cc(F)ccc4OC(C)(C)[C@H]3O)ccc2O1 [Example 59B] 8.80

Provide measured pEC50 value, entry: CCC1(CC)CC(=O)N([C@@H]2CCOc3ccc(C(=O)N[C@@H]4CC(C)(C)Oc5ccccc54)nc32)C(=N)N1 [Example 31A] 7.66

Provide measured pEC50 value, entry: CCC1(CC)CC(=O)N([C@@H]2CCCc3ccc(C(=O)N[C@@H]4c5ccccc5C[C@@]4(C)O)cc32)C(=N)N1 [Example 114] 8.74

Provide measured pEC50 value, entry: CCC1(CC)CC(=O)N([C@@H]2CCOc3ccc(C(=O)N[C@@H]4c5cc(C#N)ccc5OC(C)(C)[C@H]4O)cc32)C(=N)N1 [Example 20A] 9.10

Provide measured pEC50 value, entry: CCC1(CC)CC(=O)N([C@@H]2CCc3ccc(C(=O)N[C@@H]4c5ccccc5OC[C@@]4(C)O)cc32)C(=N)N1 [Example 123] 8.55

Provide measured pEC50 value, entry: CCC1(CC)CC(=O)N([C@@H]2CCS(=O)(=O)c3ccc(C(=O)N[C@@H]4c5ccccc5C[C@]4(C)O)cc32)C(=N)N1 [Example 262] 8.13

====

Below, each of the compounds is paired with its reported EC50 value.
- Tested on: parasites (ring stage, in human red blood cell culture)
- procedure summary: Parasite LDH growth assay (antiparasite potency, Parasite Assay)
- Assay type: cell-based, Plasmodium falciparum
- test conditions: Plasmodium falciparum, Erythrocyte, 72 h, 0.7% rings, 2% haematocrit, 72 hours at 37° C., LDH readout of parasite growth
Please give a number only; it is taken to be in nM.

Previously resolved entries follow.
- compound: "CC[C@]1(C)CC(=O)N([C@@H]2CCOc3ccc(C(=O)N[C@@H]4C[C@H](COC(F)F)Oc5ccccc54)cc32)C(=N)N1 [Example 268]"
  scale unit: "nM"
  EC50: 25
- compound: "CCC1(CC)C[C@@H](N2C(=N)NC(C)(C)CC2=O)c2cc(C(=O)N[C@@H]3c4ccccc4OC(C)(C)[C@H]3O)ccc2O1 [Example 50A]"
  scale unit: "nM"
  EC50: 3.7
- compound: "CCC1(CC)CC(=O)N([C@@H]2CCOc3ccc(C(=O)N[C@@H]4c5ccccc5C5(CC5)[C@H]4O)cc32)C(=N)N1 [Example 154]"
  scale unit: "nM"
  EC50: 0.7
- compound: "CCC1(CC)CC(=O)N([C@@H]2CCOc3ccc(C(=O)N[C@H]4c5ccccc5C5(CC5)[C@@H]4O)cc32)C(=N)N1 [Example 155]"
  scale unit: "nM"
  EC50: 82.5
- compound: "CCC1(CC)CC(=O)N([C@@H]2CCOc3ccc(C(=O)N[C@H]4CC(C)(C)Oc5ccc(F)cc54)cc32)C(=N)N1 [Example 7A]"
  scale unit: "nM"
  EC50: 0.4

Provide measured EC50 value, entry: CCC1(CC)CC(=O)N([C@H]2c3cc(C(=O)N[C@@H]4c5ccccc5C[C@@]4(C)O)ccc3OC[C@H]2COC)C(=N)N1 [Example 235] 0.7

Provide measured EC50 value, entry: CCC1(CC)CC(=O)N([C@@H]2CCOc3ccc(C(=O)NC4c5ccc(C(F)(F)F)cc5CC4N)cc32)C(=N)N1 (stereo partly shown) [Example 271] 182

Provide measured EC50 value, entry: CCC1(CC)CC(=O)N(C2CC(C(=O)N(C)C)Oc3ccc(C(=O)N[C@@H]4c5ccccc5C[C@H]4O)cc32)C(=N)N1 (stereo partly shown) [Example 274] 98.5

Provide measured EC50 value, entry: CCC1(CC)CC(=O)N([C@H]2c3cc(C(=O)N[C@@H]4c5ccccc5OC[C@]4(C)O)ccc3OC[C@@H]2OC)C(=N)N1 [Example 253] 4.3

Provide measured EC50 value, entry: CC1(C)CC(=O)N([C@@H]2CCOc3ccc(C(=O)N[C@@H]4c5ccccc5OC(C)(C)[C@H]4O)cc32)C(=N)N1 [Example 62A] 1.2

Provide measured EC50 value, entry: CCC1(CC)CC(=O)N(C2c3cc(C(=O)N[C@@H]4c5ccccc5C[C@H]4O)ccc3OC2(C)C)C(=N)N1 (stereo partly shown) [Example 127A] 202

Provide measured EC50 value, entry: COC1COc2ccc(C(=O)N[C@@H]3c4ccccc4C[C@H]3O)cc2C1N1C(=N)NC(C)(C)CC1=O (stereo partly shown) [Example 110] 60

Provide measured EC50 value, entry: CCC1(CC)CC(=O)N([C@@H]2CCOc3c(C#N)cc(C(=O)N[C@@H]4c5ccccc5OC(C)(C)[C@H]4O)cc32)C(=N)N1 [Example 28A] 1.8

Provide measured EC50 value, entry: CC[C@]1(C)CC(=O)N([C@@H]2CCc3ccc(C(=O)N[C@@H]4c5ccccc5OC[C@]4(C)O)cc32)C(=N)N1 [Example 99] 4.2

Provide measured EC50 value, entry: CCC1(CC)CC(=O)N([C@@H]2CCCOc3ccc(C(=O)N[C@@H]4c5ccccc5OC(C)(C)[C@H]4O)cc32)C(=N)N1 [Example 248] 0.8

====

- System: parasites (ring stage, in human red blood cell culture)
- procedure summary: Parasite LDH growth assay (antiparasite potency, Parasite Assay)
- Type: cell-based, Plasmodium falciparum
- test conditions: Plasmodium falciparum, Erythrocyte, 72 h, 0.7% rings, 2% haematocrit, 72 hours at 37° C., LDH readout of parasite growth
Please respond with Satisfied when measured EC50 is strictly beneath 8 nM, and with Not satisfied in all other cases.

- compound: "CCC1(CC)CC(=O)N([C@H]2c3cc(C(=O)N[C@@H]4c5ccccc5C[C@@]4(C)O)ccc3OC2(C)C)C(=N)N1"
  group label: "Not satisfied"
- compound: "CC(C)[C@]1(C)CC(=O)N([C@@H]2CCOc3ccc(C(=O)N[C@@H]4c5ccccc5OC(C)(C)C4O)cc32)C(=N)N1 (stereo partly drawn) [Example 11B]"
  group label: "Not satisfied"
- compound: "C[C@@H]1C[C@@H](N2C(=N)NC(C)(C)CC2=O)c2cc(C(=O)N[C@@H]3c4ccccc4OC(C)(C)[C@H]3O)ccc21"
  group label: "Satisfied"
- compound: "CC1(C)CC(=O)N([C@@H]2CCOc3ccc(C(=O)N[C@@H]4c5ccccc5OC(C)(C)[C@@]4(C)O)cc32)C(=N)N1"
  group label: "Satisfied"
- compound: "CC[C@]1(C)CC(=O)N([C@H]2c3cc(C(=O)N[C@@H]4c5ccccc5OC(C)(C)[C@H]4O)ccc3C[C@@H]2C)C(=N)N1"
  group label: "Satisfied"

Now for another entry.
EC50 strictly < 8 nM for this compound? CCC1(CC)CC(=O)N([C@@H]2CC(C)(C)Oc3ccc(C(=O)N[C@@H]4c5ccccc5OC[C@@H]4O)cc32)C(=N)N1 [Example 36A] Not satisfied

Cited source: patent US12350270B2
